Source listed as patent US8664238B2.

Answer each item with its documented log10 of IC50.
# Tested on: Human breast cancer cells MCF-7
# test_details: Proliferation of MCF-7 breast cancer cells (MTT detection method)
# Format: cell-based
# condition_label: MCF-7 cells, 48 h incubation with drug, read-out: IC50, inhibition on the proliferation of MCF-7 breast cancer cells
For clarity, the numbers are log10 values of IC50 expressed in µM.

Measured on Human breast cancer cells MCF-7, `O=C1c2ccccc2-c2c1c1ccccc1c(=O)n2-c1ccc(OCCCN2CCCC2)cc1` has a documented log10 of IC50 of 1.39

Form: item `O=C1c2ccccc2-c2c1c1ccccc1c(=O)n2-c1ccc(OCCN2CCCC2)cc1` ; test system Human breast cancer cells MCF-7; log10 of IC50: 1.05

`CCN(CC)CCCOc1ccc(-n2c3c(c4ccccc4c2=O)C(=O)c2ccccc2-3)cc1` on Human breast cancer cells MCF-7 gives log10 of IC50 = 0.93

Human breast cancer cells MCF-7 data for `CN1CCN(CCCOc2ccc(-n3c4c(c5ccccc5c3=O)C(=O)c3ccccc3-4)cc2)CC1` ; its log10 of IC50: 0.77

Bench note, Human breast cancer cells MCF-7: `CN(C)CCOc1ccc(-n2c3c(c4ccccc4c2=O)C(=O)c2ccccc2-3)cc1` , log10 of IC50 reads 0.33

The compound `CN1CCN(CCOc2ccc(-n3c4c(c5ccccc5c3=O)C(=O)c3ccccc3-4)cc2)CC1` , when measured on Human breast cancer cells MCF-7, yielded log10 of IC50 of 0.76

Field log10 of IC50 (system: Human breast cancer cells MCF-7) for entry `CC(C)N(CCOc1ccc(-n2c3c(c4ccccc4c2=O)C(=O)c2ccccc2-3)cc1)C(C)C` = 1.90

Measured on Human breast cancer cells MCF-7, `O=C1c2ccccc2-c2c1c1ccccc1c(=O)n2-c1ccc(OCCN2CCCCC2)cc1` has a documented log10 of IC50 of 0.98

// log10 of IC50 (Human breast cancer cells MCF-7) for `CCN(CC)CCOc1ccc(-n2c3c(c4ccccc4c2=O)C(=O)c2ccccc2-3)cc1` = 0.89

For the compound `O=C1c2ccccc2-c2c1c1ccccc1c(=O)n2-c1ccc(OCCCN2CCCCC2)cc1` , the measured log10 of IC50 on Human breast cancer cells MCF-7 was 1.04

Record `CN(C)CCCOc1ccc(-n2c3c(c4ccccc4c2=O)C(=O)c2ccccc2-3)cc1` ; system Human breast cancer cells MCF-7; log10 of IC50 = 1.45
